FYI, the data here is from paper PMC5104425.

ASSAY TARGET: human D9D (Homo sapiens, UniProt O00767)
Construct: endogenous in cells; host or cells: HepG2
Sequence (O00767 whole entry): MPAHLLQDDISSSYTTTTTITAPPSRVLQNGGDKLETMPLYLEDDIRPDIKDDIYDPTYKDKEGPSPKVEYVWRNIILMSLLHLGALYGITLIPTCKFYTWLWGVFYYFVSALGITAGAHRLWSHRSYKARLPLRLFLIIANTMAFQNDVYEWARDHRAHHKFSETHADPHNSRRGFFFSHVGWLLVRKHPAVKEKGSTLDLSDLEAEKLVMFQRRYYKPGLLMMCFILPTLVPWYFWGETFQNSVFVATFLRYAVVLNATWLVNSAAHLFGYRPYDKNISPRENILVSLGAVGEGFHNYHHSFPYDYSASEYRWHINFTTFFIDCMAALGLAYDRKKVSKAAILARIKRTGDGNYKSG
ASSAY NAME: In vitro cell-based assay for desaturase activity (HepG2), D9D
pIC50: −log10 of the molar value.
RECORDED METRIC: pIC50

Q) State the recorded pIC50 for this entry: "O=C1Cc2c(nc(OCC(F)(F)C(F)(F)F)n(-c3ccc(OCC(F)(F)F)cc3)c2=O)N1"
A) < 5.00

* * *

ASSAY TARGET: rat D5D (Rattus norvegicus, UniProt Q920R3)
Sequence (Q920R3 whole entry): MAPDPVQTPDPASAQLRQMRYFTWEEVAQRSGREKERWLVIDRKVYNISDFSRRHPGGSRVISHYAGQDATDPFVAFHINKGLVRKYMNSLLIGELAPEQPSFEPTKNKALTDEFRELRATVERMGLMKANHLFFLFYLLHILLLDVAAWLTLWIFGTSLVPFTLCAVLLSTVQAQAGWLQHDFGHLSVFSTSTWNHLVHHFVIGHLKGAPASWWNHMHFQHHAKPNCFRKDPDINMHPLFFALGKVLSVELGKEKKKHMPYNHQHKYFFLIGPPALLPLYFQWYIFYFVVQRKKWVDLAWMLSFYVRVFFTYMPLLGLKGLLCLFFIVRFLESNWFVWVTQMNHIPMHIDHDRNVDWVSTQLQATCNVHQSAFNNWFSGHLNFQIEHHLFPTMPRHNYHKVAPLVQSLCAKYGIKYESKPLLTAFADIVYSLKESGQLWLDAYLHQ
RECORDED METRIC: pIC50
Give bare numbers, as −log10 of the molar value.

Q) State the recorded pIC50 for this entry: "O=C1Cc2c(nc(OCC(F)(F)C(F)(F)F)n(-c3ccc(OCC(F)(F)F)cc3)c2=O)N1"
A) 7.14

* * *

ASSAY TARGET: human D6D (Homo sapiens)
Construct: endogenous in cells
Sequence (O95864 whole entry): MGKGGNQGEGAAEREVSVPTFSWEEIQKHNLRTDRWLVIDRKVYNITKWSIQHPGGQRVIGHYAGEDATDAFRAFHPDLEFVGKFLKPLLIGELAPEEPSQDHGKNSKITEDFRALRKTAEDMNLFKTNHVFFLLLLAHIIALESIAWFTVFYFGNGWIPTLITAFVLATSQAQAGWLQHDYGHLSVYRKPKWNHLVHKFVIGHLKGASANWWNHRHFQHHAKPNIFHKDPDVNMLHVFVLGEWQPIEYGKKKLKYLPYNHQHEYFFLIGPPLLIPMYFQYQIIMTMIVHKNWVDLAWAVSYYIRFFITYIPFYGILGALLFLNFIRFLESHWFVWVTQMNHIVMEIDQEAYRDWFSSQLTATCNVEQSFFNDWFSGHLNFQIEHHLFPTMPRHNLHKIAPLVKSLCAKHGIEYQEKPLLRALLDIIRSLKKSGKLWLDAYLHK
ASSAY NAME: In vitro cell-based assay for desaturase activity (HepG2), D6D
APPLIED CONDITIONS: Cell-based (HepG2)
RECORDED METRIC: IC50

Q) State the recorded IC50 for this entry: O=C1Cc2c(nc(OCC(F)(F)C(F)(F)F)n(-c3ccc(OCC(F)(F)F)cc3)c2=O)N1 [Compound-326]
A) > 10 µM

* * *

ASSAY TARGET: rat D6D (Rattus norvegicus)
Sequence (Q9Z122 whole entry): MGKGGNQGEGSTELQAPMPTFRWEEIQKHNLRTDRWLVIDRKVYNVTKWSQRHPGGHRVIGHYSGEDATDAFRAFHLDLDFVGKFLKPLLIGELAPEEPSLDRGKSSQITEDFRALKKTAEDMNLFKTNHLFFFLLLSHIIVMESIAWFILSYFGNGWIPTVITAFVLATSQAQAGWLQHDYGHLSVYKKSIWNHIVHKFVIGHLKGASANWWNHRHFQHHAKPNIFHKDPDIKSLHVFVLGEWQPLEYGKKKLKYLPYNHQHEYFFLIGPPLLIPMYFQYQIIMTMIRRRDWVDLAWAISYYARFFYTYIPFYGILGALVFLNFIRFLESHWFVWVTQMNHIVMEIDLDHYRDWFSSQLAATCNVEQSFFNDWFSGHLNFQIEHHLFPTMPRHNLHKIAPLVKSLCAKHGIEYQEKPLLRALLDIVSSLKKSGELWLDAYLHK
RECORDED METRIC: IC50

Q) State the recorded IC50 for this entry: O=C1Cc2c(nc(OCC(F)(F)C(F)(F)F)n(-c3ccc(OCC(F)(F)F)cc3)c2=O)N1 [Compound-326]
A) > 10 µM

* * *

Target protein (sequence): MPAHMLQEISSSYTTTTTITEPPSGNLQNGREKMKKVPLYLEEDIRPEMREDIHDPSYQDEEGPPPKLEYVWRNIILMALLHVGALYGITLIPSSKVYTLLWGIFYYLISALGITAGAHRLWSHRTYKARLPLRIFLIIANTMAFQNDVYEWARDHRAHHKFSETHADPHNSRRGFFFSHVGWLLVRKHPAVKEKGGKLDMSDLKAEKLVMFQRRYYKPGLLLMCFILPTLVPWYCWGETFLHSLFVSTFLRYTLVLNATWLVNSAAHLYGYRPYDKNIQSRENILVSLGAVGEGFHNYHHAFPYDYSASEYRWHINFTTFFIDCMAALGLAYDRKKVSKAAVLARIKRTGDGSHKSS
RECORDED METRIC: IC50

Q) State the recorded IC50 for this entry: O=C1Cc2c(nc(OCC(F)(F)C(F)(F)F)n(-c3ccc(OCC(F)(F)F)cc3)c2=O)N1 [Compound-326]
A) > 10 µM

* * *

ASSAY TARGET: human D5D (Homo sapiens)
Construct: endogenous in cells
Sequence (O60427 whole entry): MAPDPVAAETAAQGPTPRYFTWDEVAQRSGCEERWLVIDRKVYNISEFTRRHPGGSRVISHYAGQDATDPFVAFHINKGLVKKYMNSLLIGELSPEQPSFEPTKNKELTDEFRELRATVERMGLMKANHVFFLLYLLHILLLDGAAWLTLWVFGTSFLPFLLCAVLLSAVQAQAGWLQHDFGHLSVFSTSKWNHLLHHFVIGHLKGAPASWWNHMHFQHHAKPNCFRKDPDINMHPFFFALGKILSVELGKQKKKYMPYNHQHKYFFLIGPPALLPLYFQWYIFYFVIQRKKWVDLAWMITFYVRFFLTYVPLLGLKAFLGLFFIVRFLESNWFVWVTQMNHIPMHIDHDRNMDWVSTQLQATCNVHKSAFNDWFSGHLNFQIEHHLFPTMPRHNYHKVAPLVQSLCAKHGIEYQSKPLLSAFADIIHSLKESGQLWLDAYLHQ
ASSAY NAME: In vitro cell-based assay for desaturase activity (HepG2), D5D
RECORDED METRIC: pIC50
Give bare numbers, as −log10 of the molar value.

Q) State the recorded pIC50 for this entry: "O=C1Cc2c(nc(OCC(F)(F)C(F)(F)F)n(-c3ccc(OCC(F)(F)F)cc3)c2=O)N1"
A) 7.66
